Test system: Gibberella zeae (Fusarium graminearum)
protocol-summary: whole plant or invertebrate
Format: in vivo
condition-context: in Triticum aestivum, read-out: control of Gibberella zeae
value-type: pest or weed control at 200 ppm

CC(C)(C)CC(C)(Cc1ccccc1)NC(=O)c1cnc2c(F)cccc2c1 (stereo not drawn) [X.016] : ≥ 80%
CC(C)CC(C)(Cc1ccccc1)NC(=O)c1cnc2c(F)c(F)ccc2c1 (stereo not drawn) [X.008] : ≥ 80%
C[C@](Cc1ccccc1)(CC1(F)CC1)NC(=O)c1cnc2c(F)cccc2c1 [Compound F-24] : ≥ 80%
CC(C)(C)C[C@@](C)(Cc1ccccc1)NC(=O)c1cnc2c(F)cccc2c1 [Compound F-9] : ≥ 80%
C[C@](Cc1cccc(F)c1)(CC(F)(F)F)NC(=O)c1cnc2c(F)cccc2c1 [Compound F-28] : ≥ 80%

The following compounds each have a reported value; give each one's pest or weed control at 200 ppm.
1. CC(C)(C)C[C@](C)(Cc1ccccc1)NC(=O)c1cnc2c(F)cccc2c1 [Compound F-10]
2. C[C@](Cc1ccccc1)(CC(F)(F)F)NC(=O)c1cnc2c(F)cccc2c1 [Compound F-7]
3. C[C@](Cc1ccccc1)(CC(F)(F)F)NC(=O)c1cnc2c(Cl)cccc2c1 [Compound F-19]
4. CC(C)C[C@@](C)(Cc1ccccc1)NC(=O)c1cnc2c(F)c(F)ccc2c1 [Compound F-13]

Solution:
["≥ 80%", "≥ 80%", "≥ 80%", "≥ 80%"]

The following compounds each have a reported value; give each one's pest or weed control at 200 ppm.
1. CC1(C[C@](C)(Cc2ccccc2)NC(=O)c2cnc3c(F)cccc3c2)CC1 [Compound F-25]
2. CC(C)C[C@](C)(Cc1cccc(F)c1)NC(=O)c1cnc2c(F)cccc2c1 [Compound F-29]

Solution:
1: ≥ 80%; 2: ≥ 80%

Problem: Entry under review: CC1(CC(C)(Cc2ccccc2)NC(=O)c2cnc3c(F)cccc3c2)CC1 (stereo not drawn) [X.003] . Reported pest or weed control at 200 ppm?
Solution: ≥ 80%
